System: P. falciparum K1CB1 (double mutant, C59R+S108N)
testMethodNotes: In vitro anti-Plasmodial activity against K1CB1
Assay type: cell-based, Plasmodium falciparum
recordedConditions: Plasmodium falciparum, read-out: IC50 K1CB1, P. falciparum K1CB1, double mutant
Structures can show the parent of a compound that is named as a salt.
IC50 for assorted molecules
Enter your answer as a number in µM; do not include the unit.

>  <molecule>
CCc1nc(N)nc(N)c1OCCCOc1cccc(-c2c(N)nc(N)nc2CC)c1 [Compound A]

>  <unitsSymbol>
µM

>  <IC50>
0.22

$$$$

Problem: Note down IC50 recorded for CCc1nc(N)nc(N)c1-c1ccc(Cl)cc1 [Pyr, Pyrimethamine, reference compound]
Result: 27

Problem: Note down IC50 recorded for CCc1nc(N)nc(N)c1-c1ccc(OCCCOc2ccc(-c3c(N)nc(N)nc3CC)cc2)cc1 [Compound E, dihydrochloride]
Result: 0.33

* * *

System: P. falciparum V1/S (quadruple mutant, N51I+C59R+S108N+I164L)
testMethodNotes: In vitro anti-Plasmodial activity against V1/S
Assay type: cell-based, Plasmodium falciparum
recordedConditions: read-out: IC50 V1/S; P. falciparum V1/S, quadruple mutant; dihydrochloride
Counter-ions that a name gives are not always drawn.
measuredEndpoint: IC50 (µM)
Enter your answer as a number in µM; do not include the unit.

Problem: Note down IC50 recorded for CCc1nc(N)nc(N)c1OCCCOc1ccc(-c2c(N)nc(N)nc2CC)cc1 [Compound D, dihydrochloride]
Result: 4.4
